Data origin: paper PMC7793522

- System: T1, Dengue NS3 (NS3 133 peptide) peptide on HLA-A*11:01 (human)
- T1 peptide: GTSGSPIVNR
- Procedure summary: data from [10]; method not given; soluble, other
Result type: Kd (µM)
Numbers only; they are read as µM.

Sure, the documented Kd for D30 (TCR) alpha TRAV30*01 CDR3: GLGDAGNMLT beta TRBV11-2*01 CDR3: ASSLGQGLLYGYT is 136
